- Tested on: barnyardgrass (Echinochloa crus-galli)
- procedure-text: Test A preemergence, barnyardgrass
- Format: in vivo
- condition-notes: 500 g ai/ha, 0 to 100 scale
Parameter Plant response rating, Barnyardgrass: see the listing below.

O=C1NCC(Cc2ccccc2C(F)(F)F)C1C(=O)Nc1ccccc1C(F)(F)F (centres unmarked): 0
O=C1NCC(/C=C/c2ccccc2F)C1C(=O)Nc1cccc(F)c1F (centres unmarked): 90
O=C(CCC1CNC(=O)C1C(=O)Nc1ccccc1F)Nc1ccc(F)cc1 (centres unmarked): 0
O=C1NCC(/C=C/c2cccc(F)c2)C1C(=O)Nc1cccc(F)c1F (centres unmarked): 90
O=C1NCC(C#Cc2cccc(Cl)c2)C1C(=O)Nc1ccccc1F (centres unmarked) [Compound 29]: 70
O=C1NCC(Cc2ccccc2C(F)(F)F)C1C(=O)Nc1cccc(F)c1F (centres unmarked): 50

Ask: Could you share which Plant response rating, Barnyardgrass value was measured for O=C1NCC(CCc2ccccc2)C1C(=O)Nc1cccc(F)c1F (centres unmarked) ?
Reply: 30

Ask: Could you share which Plant response rating, Barnyardgrass value was measured for O=C1NCC(Cc2ccc(C(F)(F)F)cc2)C1C(=O)Nc1cccc(F)c1F (centres unmarked) ?
Reply: 40

Ask: Could you share which Plant response rating, Barnyardgrass value was measured for O=C1NCC(C#Cc2ccc(F)cc2)C1C(=O)Nc1cccc(F)c1F (centres unmarked) ?
Reply: 90

Ask: Could you share which Plant response rating, Barnyardgrass value was measured for Cc1cccc(C#CC2CNC(=O)C2C(=O)Nc2ccc(F)c(F)c2F)c1 (centres unmarked) ?
Reply: 80

Ask: Could you share which Plant response rating, Barnyardgrass value was measured for O=C1NCC(CCc2ccccc2)C1C(=O)Nc1ccccc1F (centres unmarked) ?
Reply: 0

###

Parameter Plant response rating, Galium: see the listing below.
- Tested on: galium (catchweed bedstraw, Galium aparine)
- procedure-text: Test A postemergence, galium
- Type: in vivo
- condition-notes: 500 g ai/ha, 0 to 100 scale
Just the number.

Answered cases to consult:
O=C1NCC(Cc2ccccc2C(F)(F)F)C1C(=O)Nc1cccc(F)c1F (centres unmarked): 0
O=C1NCC(C#Cc2ccc(F)cc2)C1C(=O)Nc1ccc(F)c(F)c1F (centres unmarked): 0
O=C1NCC(C#Cc2cccc(Cl)c2)C1C(=O)Nc1ccc(F)c(F)c1F (centres unmarked): 0
O=C1NCC(/C=C/c2ccc(F)cc2)C1C(=O)Nc1cccc(F)c1F (centres unmarked): 30
O=C1NCC(Cc2ccccc2C(F)(F)F)C1C(=O)Nc1ccccc1C(F)(F)F (centres unmarked): 0

Ask: // map O=C1NCC(C#Cc2cccc(Cl)c2)C1C(=O)Nc1ccccc1F (centres unmarked) [Compound 29] to recorded Plant response rating, Galium (system: galium (catchweed bedstraw, Galium aparine))
Reply: 0

Ask: // map O=C1NCC(Cc2cccc(C(F)(F)F)c2)C1C(=O)Nc1cccc(F)c1F (centres unmarked) to recorded Plant response rating, Galium (system: galium (catchweed bedstraw, Galium aparine))
Reply: 0

###

- System: kochia (Kochia scoparia)
- procedure-text: Test A postemergence, kochia
- Format: in vivo
- condition-notes: 500 g ai/ha, 0 to 100 scale
Parameter Plant response rating, Kochia: see the listing below.
Just the number.

Answered cases to consult:
O=C1NCC(C#Cc2cccc(Cl)c2)C1C(=O)Nc1ccc(F)c(F)c1F (stereo not shown): 0
O=C1NCC(Cc2cccc(C(F)(F)F)c2)C1C(=O)Nc1cccc(F)c1F (stereo not shown): 0
Cc1cccc(C#CC2CNC(=O)C2C(=O)Nc2ccccc2F)c1 (stereo not shown): 0
O=C(Nc1cccc(C(F)(F)F)c1)C1CNC(=O)C1C(=O)Nc1cccc(F)c1F (stereo not shown): 0

Ask: Could you share which Plant response rating, Kochia value was measured for O=C1NCC(/C=C/c2ccc(F)cc2)C1C(=O)Nc1cccc(F)c1F (stereo not shown) ?
Reply: 30

Ask: Could you share which Plant response rating, Kochia value was measured for Cc1cccc(C#CC2CNC(=O)C2C(=O)Nc2ccc(F)c(F)c2F)c1 (stereo not shown) ?
Reply: 20

Ask: Could you share which Plant response rating, Kochia value was measured for O=C1NCC(C#Cc2ccc(F)cc2)C1C(=O)Nc1cccc(F)c1F (stereo not shown) ?
Reply: 0

Ask: Could you share which Plant response rating, Kochia value was measured for O=C1NCC(/C=C/c2ccccc2)C1C(=O)Nc1cccc(F)c1F (stereo not shown) ?
Reply: 0

Ask: Could you share which Plant response rating, Kochia value was measured for O=C1NCC(Cc2ccc(F)c(F)c2)C1C(=O)Nc1cccc(F)c1F (stereo not shown) ?
Reply: 0

Ask: Could you share which Plant response rating, Kochia value was measured for O=C1NCC(Cc2cccc(F)c2F)C1C(=O)Nc1ccccc1C(F)(F)F (stereo not shown) ?
Reply: 0

Ask: Could you share which Plant response rating, Kochia value was measured for O=C1NCC(CCc2ccccc2)C1C(=O)Nc1cccc(F)c1F (stereo not shown) ?
Reply: 0

Ask: Could you share which Plant response rating, Kochia value was measured for O=C(CCC1CNC(=O)C1C(=O)Nc1ccccc1F)Nc1ccc(F)cc1 (stereo not shown) ?
Reply: 0

Ask: Could you share which Plant response rating, Kochia value was measured for O=C1NCC(/C=C/c2cccc(F)c2)C1C(=O)Nc1cccc(F)c1F (stereo not shown) ?
Reply: 0

Ask: Could you share which Plant response rating, Kochia value was measured for O=C1NCC(Cc2cccc(F)c2F)C1C(=O)Nc1cccc(F)c1F (stereo not shown) ?
Reply: 0

###

Parameter Plant response rating, Pigweed: see the listing below.
- Test system: pigweed (Amaranthus retroflexus)
- procedure-text: Test A preemergence, pigweed
- Assay type: in vivo
- condition-notes: 125 g ai/ha, 0 to 100 scale
Just the number.

O=C1NCC(/C=C/c2ccccc2)C1C(=O)Nc1ccccc1F (stereo not drawn) [Compound 32]: 0
O=C1NCC(/C=C/c2cccc(F)c2)C1C(=O)Nc1cccc(F)c1F (stereo not drawn) [Compound 30]: 0

Ask: Could you share which Plant response rating, Pigweed value was measured for O=C1NCC(Cc2ccc(C(F)(F)F)cc2)C1C(=O)Nc1cccc(F)c1F (stereo not drawn) [Compound 7] ?
Reply: 0

Ask: Could you share which Plant response rating, Pigweed value was measured for O=C1NCC(/C=C/c2ccccc2F)C1C(=O)Nc1cccc(F)c1F (stereo not drawn) [Compound 28] ?
Reply: 0

Ask: Could you share which Plant response rating, Pigweed value was measured for O=C1NCC(C#Cc2ccc(F)cc2)C1C(=O)Nc1ccc(F)c(F)c1F (stereo not drawn) [Compound 17] ?
Reply: 0

Ask: Could you share which Plant response rating, Pigweed value was measured for O=C1NCC(Cc2cccc(C(F)(F)F)c2)C1C(=O)Nc1cccc(F)c1F (stereo not drawn) [Compound 11] ?
Reply: 0

###

- System: ryegrass, It. (Italian ryegrass, Lolium multiflorum)
- procedure-text: Test A preemergence, ryegrass, It.
- Format: in vivo
- condition-notes: 500 g ai/ha, 0 to 100 scale
property: Plant response rating, Ryegrass, It.
Just the number.

O=C1NCC(Cc2ccccc2C(F)(F)F)C1C(=O)Nc1ccccc1C(F)(F)F (stereo not drawn): 0

Ask: Could you share which Plant response rating, Ryegrass, It. value was measured for Cc1cccc(C#CC2CNC(=O)C2C(=O)Nc2ccccc2F)c1 (stereo not drawn) ?
Reply: 20

Ask: Could you share which Plant response rating, Ryegrass, It. value was measured for O=C1NCC(/C=C/c2ccc(F)cc2)C1C(=O)Nc1ccccc1F (stereo not drawn) ?
Reply: 20

Ask: Could you share which Plant response rating, Ryegrass, It. value was measured for O=C1NCC(Cc2ccccc2C(F)(F)F)C1C(=O)Nc1cccc(F)c1F (stereo not drawn) ?
Reply: 0

###

Parameter Plant response rating, Ducksalad: see the listing below.
- Test system: ducksalad (Heteranthera limosa)
- procedure-text: Test B flooded paddy test, ducksalad
- Assay type: in vivo
- condition-notes: Flood, 250 g ai/ha; scale of 0 to 100 where 0 is no effect and 100 is complete control; 13 to 15 d
Just the number.

Answered cases to consult:
O=C1NCC(/C=C/c2ccccc2F)C1C(=O)Nc1ccccc1F (stereo not drawn) [Compound 34]: 80
Cc1cccc(C#CC2CNC(=O)C2C(=O)Nc2cccc(F)c2F)c1 (stereo not drawn) [Compound 22]: 70
O=C(Nc1cccc(C(F)(F)F)c1)C1CNC(=O)C1C(=O)Nc1cccc(F)c1F (stereo not drawn) [Compound 18]: 40
O=C1NCC(/C=C/c2cccc(F)c2)C1C(=O)Nc1cccc(F)c1F (stereo not drawn) [Compound 30]: 95
Cc1cccc(C#CC2CNC(=O)C2C(=O)Nc2ccccc2F)c1 (stereo not drawn) [Compound 21]: 40

Ask: Could you share which Plant response rating, Ducksalad value was measured for O=C1NCC(/C=C/c2ccccc2)C1C(=O)Nc1ccccc1F (stereo not drawn) [Compound 32] ?
Reply: 70

Ask: Could you share which Plant response rating, Ducksalad value was measured for Cc1cccc(C#CC2CNC(=O)C2C(=O)Nc2ccc(F)c(F)c2F)c1 (stereo not drawn) [Compound 23] ?
Reply: 0

Ask: Could you share which Plant response rating, Ducksalad value was measured for O=C1NCC(/C=C/c2ccc(F)cc2)C1C(=O)Nc1ccccc1F (stereo not drawn) [Compound 27] ?
Reply: 80

Ask: Could you share which Plant response rating, Ducksalad value was measured for O=C1NCC(C#Cc2ccc(F)cc2)C1C(=O)Nc1ccc(F)c(F)c1F (stereo not drawn) [Compound 17] ?
Reply: 70

Taken from patent US10906873B2.
